Assay: Single dose clinical study: plasma Compound A pharmacokinetics
Assay type: in vivo, human
Conditions: human, plasma, po, 100 mg, plasma, healthy adults (Parts A,B), single oral 100 mg, fasted; read-out: Vz/F GM
readout.label: Vd/F (L)
Form entry: value (L) — number only.

Q. Return reported Vd/F; argument: COc1ncc(C)c(-c2ccc3c(c2)[nH]c(=O)c2cnn([C@H]4CCOC4)c23)c1C
A. 268

====

Experiment: Single dose clinical study Part B: CSF Compound A pharmacokinetics
Assay type: in vivo
Details: human, CSF and plasma, po, 400 mg, healthy adults Part B, single oral 400 mg, fasted; read-out: CSF: plasma Cmax ratio (expressed as %) GM (% CV)
readout.label: Kp
Form field (numeric): enter value without unit.

Q. Return reported Kp; argument: COc1ncc(C)c(-c2ccc3c(c2)[nH]c(=O)c2cnn([C@H]4CCOC4)c23)c1C
A. 0.0203

====

Test: Multiple ascending dose study: plasma pharmacokinetics
Type: in vivo
Conditions: human, po, 10 mg, Day 14, 10 mg QD oral, read-out: AUC(0-inf) Mean (SD)
readout.label: AUC(0-inf) (ng·h/mL)
Form entry: value (ng·h/mL) — number only.

Q. Return reported AUC(0-inf); argument: COc1ncc(C)c(-c2ccc3c(c2)[nH]c(=O)c2cnn([C@H]4CCOC4)c23)c1C
A. 5260

====

Experiment: Multiple ascending dose study: plasma pharmacokinetics
Assay type: in vivo
Details: human, po, 5 mg, Day 14, 5 mg QD oral, read-out: AUC(0-24 h) Median
readout.label: AUC(0-t) (ng·h/mL)
Form entry: value (ng·h/mL) — number only.

Q. Return reported AUC(0-t); argument: COc1ncc(C)c(-c2ccc3c(c2)[nH]c(=O)c2cnn([C@H]4CCOC4)c23)c1C
A. 773

====

Test: Single dose clinical study: plasma Compound A pharmacokinetics
Type: in vivo, human
Conditions: human, plasma, po, 100 mg, plasma, healthy adults (Parts A,B), single oral 100 mg, fasted; read-out: tmax Median
readout.label: Tmax

Q. Return reported Tmax; argument: COc1ncc(C)c(-c2ccc3c(c2)[nH]c(=O)c2cnn([C@H]4CCOC4)c23)c1C [Compound A]
A. 2.99 h

====

Test: Single dose clinical study: plasma Compound A pharmacokinetics
Assay type: in vivo, human
Details: human, plasma, oral, 400 mg, Japanese, 400 mg, with weight as covariate; read-out: AUC(O-inf) Geometric LS Means Test
readout.label: AUC (ng·h/mL)
Form entry: value (ng·h/mL) — number only.

Q. Return reported AUC; argument: COc1ncc(C)c(-c2ccc3c(c2)[nH]c(=O)c2cnn([C@H]4CCOC4)c23)c1C
A. 46000

====

Test: Single dose clinical study: plasma Compound A pharmacokinetics
Type: in vivo, human
Conditions: human, plasma, po, 1200 mg, plasma, healthy adults (Parts A,B), single oral 1200 mg, fasted; read-out: Vz/F GM
readout.label: Vd/F (L)
Form entry: value (L) — number only.

Q. Return reported Vd/F; argument: COc1ncc(C)c(-c2ccc3c(c2)[nH]c(=O)c2cnn([C@H]4CCOC4)c23)c1C [Compound A]
A. 666
